This collection of values is drawn from paper doi:10.1101/2025.09.30.679521v1.

# ASSAY_REMARKS: physchem
REPORTED_METRIC: logD
Quick one: just the number, no unit, thanks!

Illustrative cases are given below, each with its answer.
> print(dat)
                                   compound  recorded.value
1  O[C@@H]1[C@H](O)[C@@H](CSc2nc3ccccc3s2)O[C@H]1n1cnc2c(NC3COC3)ncnc21             1.4
2  OC1C(CSc2nc3ccccc3s2)OC(n2cnc3c(NC4CCCC4)ncnc32)C1O (stereo not shown)             2.5
3  Nc1ncnc2c1ncn2[C@@H]1O[C@H](CCc2nc3ccccc3s2)[C@@H](O)[C@H]1O               1

In the following, a different compound is considered.
Query: Quick one: give measured logD for CNc1ncnc2c1ncn2[C@@H]1O[C@H](CSc2nc3ccccc3s2)[C@@H](O)[C@H]1O
Result: 1.3

---

# Tested on: SARS-CoV-2
# ASSAY_REMARKS: microbe, parasite or virus in culture
# Set-up: species or system Vero E6; antiviral cytopathic effect assay with SARS-CoV-2 in Vero E6 cells
# STUDY_CONDITIONS: Severe acute respiratory syndrome coronavirus 2, Vero C1008; read-out: CPE assay EC50 /
REPORTED_METRIC: pEC50
Field pEC50 (float): negative decimal logarithm of the concentration in molar.

Query: Quick one: give measured pEC50 for Nc1ncnc2c1ncn2[C@@H]1O[C@H](/C=C/c2nc3ccccc3s2)[C@@H](O)[C@H]1O
Result: 5.06

---

# SUBJECT_OF_TEST: SARS-CoV-2 nsp14 (Severe acute respiratory syndrome coronavirus 2, UniProt P0DTD1)
# Construct: gene rep
# ASSAY_REMARKS: RapidFire MS methyltransferase assay
# Format: biochemical
# STUDY_CONDITIONS: read-out: IC50
# Source text: RapidFire MS methyltransferase assay on SARS-CoV-2 nsp14
REPORTED_METRIC: IC50 (nM)
Provide the reading as a plain figure in nM.

Illustrative cases are given below, each with its answer.
> print(dat)
                        structure.as.smiles  reported.metric  unit.abbrev  recorded.value
1  Nc1ncnc2c1ncn2[C@@H]1C[C@H](CSc2nc3ccccc3s2)[C@@H](O)[C@H]1O             IC50           nM              53
2  Nc1ncnn2c([C@@H]3O[C@H](CSc4nc5ccccc5s4)[C@@H](O)[C@H]3O)ccc12             IC50           nM             370
3  Nc1ncnn2c([C@@H]3O[C@H](CNS(=O)(=O)c4ccc5ccccc5c4)[C@@H](O)[C@H]3O)ccc12             IC50           nM             170
4  Nc1ncnn2c([C@@H]3O[C@H](/C=C/c4nc5ccccc5s4)[C@@H](O)[C@H]3O)ccc12             IC50           nM              83

Query: Quick one: give measured IC50 for Nc1ncnc2c1ncn2[C@@H]1O[C@H](CSc2ccc3cccnc3c2)[C@@H](O)[C@H]1O
Result: 360

---

Below, each of the compounds is paired with its reported log10 of IC50 value.
# SUBJECT_OF_TEST: SARS-CoV-2 nsp14 (Severe acute respiratory syndrome coronavirus 2, UniProt P0DTD1)
# Construct: gene rep
# ASSAY_REMARKS: RapidFire MS methyltransferase assay
# Assay type: biochemical
# STUDY_CONDITIONS: read-out: IC50
The base-10 logarithm of IC50, taken with IC50 in µM, is what appears here.

Illustrative cases are given below, each with its answer.
> print(dat)
                        structure.as.smiles  recorded.value
1  Nc1ncnc2c1ncn2[C@@H]1O[C@H](CSc2nc3ccccc3o2)[C@@H](O)[C@H]1O           -0.17
2  Nc1ncnn2c([C@@H]3O[C@H](CSc4ccc5ccccc5c4)[C@@H](O)[C@H]3O)ccc12           -0.70
3  Nc1ncnn2c([C@@H]3O[C@H](CCc4nc5ccccc5s4)[C@@H](O)[C@H]3O)ccc12           -0.30
4  CCNC(=O)NCCSC[C@H]1O[C@@H](n2cnc3c(N)ncnc32)[C@H](O)[C@@H]1O            0.28
5  Nc1ncnc2c1ccn2[C@@H]1O[C@H](CSc2nc3ccccc3s2)[C@@H](O)[C@H]1O           -1.26

Query: # return log10 of IC50 for Nc1ncnn2c([C@@H]3O[C@H](CSc4ccc5ccccc5n4)[C@@H](O)[C@H]3O)ccc12 , test system: SARS-CoV-2 nsp14 (Severe acute respiratory syndrome coronavirus 2, UniProt P0DTD1)
Result: -0.17

Query: # return log10 of IC50 for CNc1ncnc2c1ncn2[C@@H]1O[C@H](CSc2nc3ccccc3s2)[C@@H](O)[C@H]1O , test system: SARS-CoV-2 nsp14 (Severe acute respiratory syndrome coronavirus 2, UniProt P0DTD1)
Result: 0.32

---

# SUBJECT_OF_TEST: HCoV-229E nsp14 (Human coronavirus 229E, UniProt P0C6X1)
# Construct: gene rep
# Sequence (P0C6X1 5593-6110): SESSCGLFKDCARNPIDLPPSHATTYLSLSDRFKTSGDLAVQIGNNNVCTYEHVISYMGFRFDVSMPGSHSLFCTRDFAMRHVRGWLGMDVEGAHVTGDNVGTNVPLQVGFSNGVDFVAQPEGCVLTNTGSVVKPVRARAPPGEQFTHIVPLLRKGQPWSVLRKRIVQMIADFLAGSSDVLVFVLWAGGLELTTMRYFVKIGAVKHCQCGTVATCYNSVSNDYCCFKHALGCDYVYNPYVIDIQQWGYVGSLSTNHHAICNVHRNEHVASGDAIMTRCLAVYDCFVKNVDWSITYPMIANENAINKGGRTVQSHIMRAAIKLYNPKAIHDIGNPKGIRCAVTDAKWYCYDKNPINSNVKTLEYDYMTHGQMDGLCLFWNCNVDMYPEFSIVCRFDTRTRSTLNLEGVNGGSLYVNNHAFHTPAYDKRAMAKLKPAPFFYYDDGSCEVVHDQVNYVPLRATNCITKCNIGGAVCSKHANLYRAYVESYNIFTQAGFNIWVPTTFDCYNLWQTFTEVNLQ
# ASSAY_REMARKS: RapidFire MS methyltransferase assay
# Format: biochemical
# STUDY_CONDITIONS: read-out: IC50
REPORTED_METRIC: pIC50
Field pIC50 (float): negative decimal logarithm of the concentration in molar.

> print(dat)
                         structure.as.smiles  reported.metric  recorded.value
 1  Nc1ncnc2c1ncn2[C@@H]1O[C@H](CSc2ccc3cccnc3c2)[C@@H](O)[C@H]1O            pIC50            6.24
 2  Nc1ncnn2c([C@@H]3O[C@H](CNS(=O)(=O)c4ccc5ccccc5c4)[C@@H](O)[C@H]3O)ccc12            pIC50            6.49
 3  Nc1ncnn2c([C@@H]3O[C@H](CCc4nc5ccccc5s4)[C@@H](O)[C@H]3O)ccc12            pIC50            5.64
 4  Nc1ncnn2c([C@@H]3O[C@H](/C=C/c4nc5ccccc5s4)[C@@H](O)[C@H]3O)ccc12            pIC50            7.31
 5  Nc1ncnc2c1ncn2[C@@H]1O[C@H](CSc2cccn3cncc23)[C@@H](O)[C@H]1O            pIC50            6.10
 6  Nc1ncnc2c1ncn2[C@@H]1O[C@H](CSc2nc3ccccc3o2)[C@@H](O)[C@H]1O            pIC50            6.02
 7  Nc1ncnc2c1ncn2[C@@H]1O[C@H](CNS(=O)(=O)c2ccc3ccccc3c2)[C@@H](O)[C@H]1O            pIC50            6.52
 8  Nc1ncnc2c1ncn2[C@@H]1O[C@H](CSc2ccc3ccccc3c2)[C@@H](O)[C@H]1O            pIC50            6.33
 9  Nc1ncnc2c1ncn2[C@@H]1O[C@H](CSc2nc3ccccc3[nH]2)[C@@H](O)[C@H]1O            pIC50            6.07
10  Nc1ncnc2c1ccn2[C@@H]1O[C@H](CSc2nc3ccccc3s2)[C@@H](O)[C@H]1O            pIC50            7.39

Query: Quick one: give measured pIC50 for Nc1ncnc2c1ncn2[C@@H]1C[C@H](CSc2nc3ccccc3s2)[C@@H](O)[C@H]1O
Result: 7.68

Query: Quick one: give measured pIC50 for Nc1ncnc2c1ncn2[C@@H]1O[C@H](CSc2nc3ccccc3s2)[C@@H](O)[C@H]1O
Result: 6.51

Query: Quick one: give measured pIC50 for Nc1ncnn2c([C@@H]3O[C@H](CSc4nc5ccccc5s4)[C@@H](O)[C@H]3O)ccc12
Result: 6.72

Query: Quick one: give measured pIC50 for CCc1cn([C@@H]2O[C@H](CSc3nc4ccccc4s3)[C@@H](O)[C@H]2O)c2ncnc(N)c12
Result: 6.92

Query: Quick one: give measured pIC50 for Nc1ncnc2c1ncn2[C@@H]1O[C@H](CSc2ccn3cncc3c2)[C@@H](O)[C@H]1O
Result: 5.96

Query: Quick one: give measured pIC50 for Nc1ncnc2c1ncn2[C@@H]1O[C@H](CSc2ccc3ccccc3n2)[C@@H](O)[C@H]1O
Result: 6.26

Query: Quick one: give measured pIC50 for Nc1ncnc2c1ncn2[C@@H]1O[C@H](/C=C/c2nc3ccccc3s2)[C@@H](O)[C@H]1O
Result: 7.29

---

# SUBJECT_OF_TEST: UniProtKB P0C6X5
# Sequence (P0C6X5 5568-6085): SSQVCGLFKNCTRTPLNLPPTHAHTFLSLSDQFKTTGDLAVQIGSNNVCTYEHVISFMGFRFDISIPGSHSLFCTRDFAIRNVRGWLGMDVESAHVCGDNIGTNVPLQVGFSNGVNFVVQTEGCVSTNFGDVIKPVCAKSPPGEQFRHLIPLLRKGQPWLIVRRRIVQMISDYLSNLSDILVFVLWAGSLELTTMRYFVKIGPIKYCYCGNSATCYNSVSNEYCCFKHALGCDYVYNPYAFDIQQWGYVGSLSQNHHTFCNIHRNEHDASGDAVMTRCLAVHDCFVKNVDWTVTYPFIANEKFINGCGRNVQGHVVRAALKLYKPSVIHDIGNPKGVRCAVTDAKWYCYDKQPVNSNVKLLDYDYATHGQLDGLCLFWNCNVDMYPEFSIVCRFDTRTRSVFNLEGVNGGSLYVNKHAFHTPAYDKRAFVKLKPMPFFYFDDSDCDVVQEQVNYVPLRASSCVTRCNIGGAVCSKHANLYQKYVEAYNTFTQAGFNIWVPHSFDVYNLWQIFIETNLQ
# ASSAY_REMARKS: RapidFire MS methyltransferase assay
# Type: biochemical
# STUDY_CONDITIONS: read-out: IC50
REPORTED_METRIC: IC50 (nM)
Provide the reading as a plain figure in nM.

Illustrative cases are given below, each with its answer.
> print(dat)
                        structure.as.smiles  recorded.value
1  Nc1ncnc2c1ncn2[C@@H]1O[C@H](CSc2nc3ccccc3[nH]2)[C@@H](O)[C@H]1O             480
2  Nc1ncnc2c1ncn2[C@@H]1O[C@H](CNS(=O)(=O)c2ccc3ccccc3c2)[C@@H](O)[C@H]1O             530
3  Nc1ncnc2c1ncn2[C@@H]1O[C@H](CSc2ccn3cncc3c2)[C@@H](O)[C@H]1O            6400
4  Nc1ncnc2c1ncn2[C@@H]1O[C@H](CSc2cccn3cncc23)[C@@H](O)[C@H]1O            9500
5  Nc1ncnc2c1ncn2[C@@H]1O[C@H](CSc2ccc3ccccc3c2)[C@@H](O)[C@H]1O             230

Query: Quick one: give measured IC50 for Nc1ncnc2c1ncn2[C@@H]1O[C@H](CSc2ccc3ccccc3n2)[C@@H](O)[C@H]1O
Result: 240
